- STUDY SYSTEM: T1, His-tagged FLT3 extracellular domain (UniProt P36888 27-543, limits assumed)
- T1 construct: extracellular domain; also called c-Kit family member; not shown: His tag
- T1 sequence (looked up): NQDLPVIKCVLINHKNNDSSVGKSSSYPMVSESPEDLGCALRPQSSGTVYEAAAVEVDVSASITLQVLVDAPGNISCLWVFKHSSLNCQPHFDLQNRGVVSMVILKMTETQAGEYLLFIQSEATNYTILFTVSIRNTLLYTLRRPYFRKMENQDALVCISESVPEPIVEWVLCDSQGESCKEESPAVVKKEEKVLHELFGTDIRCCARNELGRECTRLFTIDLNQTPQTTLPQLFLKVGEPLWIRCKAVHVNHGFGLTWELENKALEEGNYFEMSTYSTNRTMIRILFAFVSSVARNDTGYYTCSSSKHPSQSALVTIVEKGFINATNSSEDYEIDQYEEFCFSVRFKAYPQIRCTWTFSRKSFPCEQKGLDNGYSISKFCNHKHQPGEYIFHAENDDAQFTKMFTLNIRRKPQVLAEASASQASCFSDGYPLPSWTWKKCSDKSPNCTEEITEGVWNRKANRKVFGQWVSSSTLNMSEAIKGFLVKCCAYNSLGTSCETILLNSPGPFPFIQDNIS
- TEST PROTOCOL: ELISA, His-tagged extracellular domain coated
MEASURE NAME: binding result

# BINDER, DATA VALUE
rows = [
    ("hSR1-5 (antibody, human IgG1, kappa, V domains shown, also called humanized SR1-5; hSR1-H2 / hSR1-L2r) VH: QVQLVQSGAEVKKPGASVKVSCKASGYTFTSYNMHWVRQAPGQGLEWMGVIYSGNGDTSYAQKFQGRVTMTADTSTSTAYMELSSLRSEDTAVYYCARERDTRFGNWGQGTLVTVSS VL: DIQLTQSPSSLSASVGDRATITCRASESVDIYGNSFMHWYQQKPGKAPKLLIYLASNLESGVPSRFSGSGSRTDFTLTISSVQPEDFATYYCQQNNEDPYTFGQGTKLEIKR", "no binding"),
    ("hSR1-1 (antibody, human IgG1, kappa, V domains shown, Humanized anti-c-Kit antibody; also called humanized SR1-1; hSR1-H2 / hSR1-L2) VH: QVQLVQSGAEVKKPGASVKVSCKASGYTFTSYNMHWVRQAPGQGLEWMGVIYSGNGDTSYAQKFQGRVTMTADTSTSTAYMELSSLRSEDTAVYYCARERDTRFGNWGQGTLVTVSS VL: DIQLTQSPSSLSASVGDRATITCRASESVDIYGNSFMHWYQQKPGKAPKLLIYLASNLESGVPSRFSGSGSGTDFTLTISSVQPEDFATYYCQQNNEDPYTFGQGTKLEIKR", "no binding"),
    ("hSR1-3 (antibody, human IgG1, kappa, V domains shown, also called humanized SR1-3; hSR1-H2b / hSR1-L2) VH: QVQLVQSGAEVKKPGASVKVSCKASGYTFTSYNMHWVRQAPGQGLEWMGVIYSGNGDTSYAQKFQGRVTMTADKSTSTAYMELSSLRSEDTAVYYCARERDTRFGNWGQGTLVTVSS VL: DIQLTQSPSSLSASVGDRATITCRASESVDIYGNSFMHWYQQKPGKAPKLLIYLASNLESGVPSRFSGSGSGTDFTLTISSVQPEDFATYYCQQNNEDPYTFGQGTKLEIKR", "no binding"),
]
